# experimentNotes: qHTS Assay for inhibitors of the human cytomegalovirus (HCMV); note: % is set by controls: 0 for no effect and ±100 for the full control effect
# conditionLabel: HFF cells, HCMV-luciferase reporter, 72 h; at 57.5 µM; active compounds read low
The campaign covered roughly 410,000 compounds. About 18,000 (4.4%) were called active. About 7% were inconclusive and are not listed. This excerpt belongs to a sample that is enriched for actives.
Recorded activity change, negative = inhibition values for a group of compounds are listed next.
parameterMeasured: activity change, negative = inhibition (%)

O=C(CCc1c[nH]c2ccccc12)NCCOc1ccccc1
-2.62
Cc1cccc(C(CC(=O)NCC2(c3ccccc3)CCCC2)c2ccccc2)c1O (centres undefined)
-38.6
COc1cc(CN(CC2CCCO2)C(=O)c2ccccc2F)cc(OC)c1OC (centres undefined)
-11.3
Cc1nn(CC(=O)O)c(=O)c2cc3cc(F)ccc3n12
31
Cc1cc(NC(=O)C2CCC(CNS(=O)(=O)c3ccc(Br)s3)CC2)ccc1Br (centres undefined)
-4.58
Clc1ccc(-n2nnnc2-c2cnc(-c3ccccn3)nc2-c2cccs2)cc1
-103
Cc1nn2c(=O)cc(COC(=O)CNC(=O)c3ccc(F)cc3)nc2s1
-0.933
O=C(NCCCc1ccccc1)C(=O)c1c[nH]c2ccccc12
21.3
COc1ccc(NC(=O)C2CCC(CNS(=O)(=O)c3csc(C(N)=O)c3)CC2)cc1OC (centres undefined)
-65.3

The measurements presented in this section are drawn from PubChem BioAssay AID1259415.
